Values compiled from patent US10343977B2.

For each record, write down the corresponding inhibition at 12.5 µM.
# Tested on: LPS-mediated MCP-1 production in THP-1 cells
# ASSAY EXPLANATION: LPS-mediated MCP-1 production in THP-1 cells
# Format: cell-based
# ASSAY CONTEXT: Homo sapiens; 12.5 μM test compound; THP-1 cells, LPS 1 μg/ml; NI = no inhibition
Give a bare numeral; the unit % is implied.

Request the reported inhibition at 12.5 µM associated with CC(C)CCC(=O)[C@@]1(OC(=O)CC(C)(C)C)C(O)=C(C(=O)CC(C)C)C(=O)[C@@H]1CCC(C)C [KDT0034] 100

Request the reported inhibition at 12.5 µM associated with CC(C)CCC(=O)[C@@]1(O)C(O)=C(C(=O)CC(C)C)C(=O)[C@H]1CCC(C)C [KDT700] 88

Request the reported inhibition at 12.5 µM associated with CO/N=C(/CC(C)C)C1=C(O)[C@](O)(/C(CCC(C)C)=N/OC)[C@@H](CCC(C)C)C1=O [KDT0001/2] 74

Request the reported inhibition at 12.5 µM associated with C#CCCOC(=O)O[C@]1(C(=O)CCC(C)C)C(O)=C(C(=O)CC(C)C)C(=O)[C@@H]1CCC(C)C [KDT0035] 95

Request the reported inhibition at 12.5 µM associated with CC(C)CC[C@H]1C(=O)C(C(=O)CC(C)C)=C(O)[C@]1(O)C(=O)CCC(C)C(=O)O (some centres unmarked) [KDT0038] 46
